Test system: sicklepod (Cassia obtusifolia, CASOB)
Assay: Pre-emerge test, greenhouse herbicide activity screening
Type: in vivo
Conditions: 63 g ai/ha; phytotoxicity rating 0-100, 14 days after application
Procedure: A standard greenhouse herbicide activity screening system was used to evaluate the herbicidal efficacy and crop safety of these test compounds. […] At 14 days after application of the test materials, phytotoxicity ratings were recorded. […]
Below, each entry is listed with its recorded Pre-emerge Herbicidal Activity CASOB.
PROPERTY LABEL: Pre-emerge Herbicidal Activity CASOB

# CPD SMILES, OBSERVED MEASUREMENT
rows = [
    ("COc1c(Cl)cc(F)c(-n2c(=O)cc(C(F)(F)F)n(C)c2=O)c1NC(=O)OCc1cccc(F)c1", 100),
    ("COc1c(Cl)cc(F)c(-n2c(=O)cc(C(F)(F)F)n(C)c2=O)c1NC(=O)OCc1ccc(F)c(F)c1", 90),
    ("COc1c(Cl)cc(F)c(-n2c(=O)cc(C(F)(F)F)n(C)c2=O)c1NC(=O)OCc1cc(C)ccc1C", 30),
    ("COc1c(Cl)cc(F)c(-n2c(=O)cc(C(F)(F)F)n(C)c2=O)c1NC(=O)OCc1c(Cl)cccc1Cl", 0),
    ("COc1c(Cl)cc(F)c(-n2c(=O)cc(C(F)(F)F)n(C)c2=O)c1NC(=O)C1CC1", 20),
    ("CCCCCC(=O)Nc1c(OC)c(Cl)cc(F)c1-n1c(=O)cc(C(F)(F)F)n(C)c1=O", 50),
    ("Cc1c(Cl)cc(F)c(-n2c(=O)cc(C(F)(F)F)n(C)c2=O)c1NC(=O)OCc1ccccc1Cl", 30),
    ("COc1c(Cl)cc(F)c(-n2c(=O)cc(C(F)(F)F)n(C)c2=O)c1NC(=O)Oc1ccccc1C(C)(C)C", 0),
    ("Cn1c(C(F)(F)F)cc(=O)n(-c2c(F)cc(Cl)c(OCC#N)c2NC(=O)c2ccc3ccccc3c2)c1=O", 80),
]

The values you see were collected from patent US6355799B1.
